Values were extracted from patent EP0171441A1.

- System: cells originated from human mouth tumor (KB-cells)
- assayOverview: Test on inhibition of proliferation using cells originated from human mouth tumor (KB-cells)
- Format: cell-based
- measurementSetup: 96 h, stationary culture at 37°C for 4 days, Trypan Blue staining, surviving cell number relative to control
recordedEndpoint: IC50 (µg/mL)
Use µg/mL as the unit, but write only the number.

# count of solved cases: 2
In: GET /values?readout=IC50&item= CCCCCC=CC=C1C(=O)C=CC1CC=CCCCCOC(C)=O (stereo not shown) [Compound 3]
Out: 1.6

In: GET /values?readout=IC50&item= CCCCC[C@H](O)/C=C/[C@H]1C(=O)C=C[C@@H]1C/C=C\CCCCOC(N)=O [Compound 1(c)]
Out: 1.1

Continue with the molecule presented below.
In: GET /values?readout=IC50&item= CCCCC[C@H](O)/C=C/[C@H]1C(=O)C[C@H](O)[C@@H]1C/C=C\CCCCOC(=O)C=C(C)C [Compound 1, 1-O-(3,3-dimethylacryloyl)-PGD2 alcohol]
Out: 2.1
